Data origin, for the record: ChEMBL document CHEMBL3085748

# measurement target: Acetylcholinesterase (Electrophorus electricus)
# measurement protocol: Inhibition of electric eel acetylcholinesterase using acetylcholine chloride as substrate measured every 1 min by chemiluminescent assay
metric: pIC50
# reply with the number alone; pIC50 is -log10 of concentration in mol/L

Suppose we examine the compound `O=C1CCN(Cc2ccccc2)C/C1=C\c1c[nH]c2ccccc12` ; what pIC50 value has been reported?
5.10

* * *

# measurement target: Acetylcholinesterase (Homo sapiens, UniProt P22303)
# Sequence (P22303 whole entry): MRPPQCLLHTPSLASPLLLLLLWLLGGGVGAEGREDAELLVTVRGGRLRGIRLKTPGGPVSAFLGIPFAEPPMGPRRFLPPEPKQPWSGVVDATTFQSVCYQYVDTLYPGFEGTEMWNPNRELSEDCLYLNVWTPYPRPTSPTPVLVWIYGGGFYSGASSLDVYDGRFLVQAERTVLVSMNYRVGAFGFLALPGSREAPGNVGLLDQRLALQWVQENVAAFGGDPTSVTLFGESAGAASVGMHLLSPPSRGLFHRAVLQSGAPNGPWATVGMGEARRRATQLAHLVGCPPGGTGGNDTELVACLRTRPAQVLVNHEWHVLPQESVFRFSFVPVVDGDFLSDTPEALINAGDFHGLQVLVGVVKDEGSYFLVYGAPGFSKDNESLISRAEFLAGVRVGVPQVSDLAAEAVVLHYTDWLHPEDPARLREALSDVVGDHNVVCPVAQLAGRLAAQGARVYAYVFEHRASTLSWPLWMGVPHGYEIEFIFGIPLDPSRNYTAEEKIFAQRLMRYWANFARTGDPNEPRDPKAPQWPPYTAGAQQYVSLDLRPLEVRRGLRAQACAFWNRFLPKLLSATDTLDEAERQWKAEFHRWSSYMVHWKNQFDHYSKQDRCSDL
# measurement protocol: Inhibition of acetylcholinesterase (unknown origin) by Ellman's method
metric: pIC50
# reply with the number alone; pIC50 is -log10 of concentration in mol/L

Suppose we examine the compound `CCn1c(=O)n(C)s/c1=N\CCC1CCN(Cc2ccccc2)CC1` ; what pIC50 value has been reported?
6.85

* * *

Hi there, I'd appreciate the recorded IC50 for every entry that follows.
# measurement target: Acetylcholinesterase (Homo sapiens)
# measurement protocol: Inhibition of acetylcholinesterase (unknown origin)
State the answer as a number, implicitly in nM.

Suppose we examine the compound CCOC(=O)C1=C(C)Oc2nc3c(c(N)c2C1c1ccc(OC)cc1)CCCC3 (configuration not stated) ; what IC50 value has been reported?
868

Suppose we examine the compound CCOC(=O)C1=C(C)Oc2nc3c(c(N)c2C1c1ccc(C)cc1)CCCC3 (configuration not stated) ; what IC50 value has been reported?
182

* * *

# measurement target: Cholinesterase (Equus caballus)
# Sequence (P81908 whole entry): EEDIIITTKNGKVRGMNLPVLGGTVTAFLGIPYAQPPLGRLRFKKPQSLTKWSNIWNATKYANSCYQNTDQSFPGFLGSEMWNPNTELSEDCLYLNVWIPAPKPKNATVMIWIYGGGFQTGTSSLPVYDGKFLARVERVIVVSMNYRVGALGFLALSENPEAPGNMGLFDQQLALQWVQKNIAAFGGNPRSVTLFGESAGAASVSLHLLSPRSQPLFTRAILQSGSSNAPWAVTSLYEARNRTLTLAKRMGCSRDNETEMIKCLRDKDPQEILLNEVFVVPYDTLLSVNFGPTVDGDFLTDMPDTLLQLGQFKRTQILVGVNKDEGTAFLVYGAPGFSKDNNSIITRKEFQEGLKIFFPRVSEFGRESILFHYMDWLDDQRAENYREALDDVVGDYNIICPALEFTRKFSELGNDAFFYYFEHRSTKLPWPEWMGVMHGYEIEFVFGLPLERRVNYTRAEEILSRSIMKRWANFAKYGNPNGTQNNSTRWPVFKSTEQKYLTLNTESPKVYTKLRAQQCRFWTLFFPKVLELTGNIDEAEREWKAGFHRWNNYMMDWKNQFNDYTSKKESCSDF
# measurement protocol: Inhibition of equine serum BuChE after 15 mins by spectrophotometric analysis
metric: IC50 (µM)
State the answer as a number, implicitly in µM.

Suppose we examine the compound `COc1cc2c3c(c1OC)/C1=C/C[C@H](O)C[C@@H](O)[C@H](O1)[C@@H]3N(C)CC2` ; what IC50 value has been reported?
13.4

* * *

# measurement target: Acetylcholinesterase (Electrophorus electricus, UniProt O42275)
# Sequence (O42275 whole entry): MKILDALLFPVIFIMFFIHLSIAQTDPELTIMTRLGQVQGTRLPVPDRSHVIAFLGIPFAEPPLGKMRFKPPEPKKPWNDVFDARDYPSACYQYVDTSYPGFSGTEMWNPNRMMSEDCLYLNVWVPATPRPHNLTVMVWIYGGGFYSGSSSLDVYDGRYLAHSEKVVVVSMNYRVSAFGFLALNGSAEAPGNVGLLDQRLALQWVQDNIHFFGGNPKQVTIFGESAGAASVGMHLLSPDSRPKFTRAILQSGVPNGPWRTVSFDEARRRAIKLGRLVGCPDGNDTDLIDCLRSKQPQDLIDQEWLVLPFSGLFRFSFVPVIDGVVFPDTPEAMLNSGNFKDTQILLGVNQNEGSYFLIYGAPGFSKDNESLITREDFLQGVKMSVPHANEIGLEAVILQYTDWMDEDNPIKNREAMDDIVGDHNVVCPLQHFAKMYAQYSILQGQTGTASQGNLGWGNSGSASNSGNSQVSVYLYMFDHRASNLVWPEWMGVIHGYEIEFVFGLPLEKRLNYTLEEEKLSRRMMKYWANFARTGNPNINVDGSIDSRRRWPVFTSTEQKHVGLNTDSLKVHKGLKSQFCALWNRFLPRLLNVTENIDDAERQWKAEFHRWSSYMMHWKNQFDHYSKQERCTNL
# measurement protocol: Inhibition of electric eel acetylcholinesterase using acetylthiocholine chloride as substrate preincubated for 15 mins followed by substrate addition measured every 1 min by spectrophotometric analysis
metric: IC50 (nM)
State the answer as a number, implicitly in nM.

Suppose we examine the compound `COc1cc2c3c(c1OC)/C1=C/C[C@H](O)C[C@@H](O)[C@H](O1)[C@@H]3N(C)CC2` ; what IC50 value has been reported?
720

* * *

# measurement target: Acetylcholinesterase (Rattus norvegicus, UniProt P37136)
# Sequence (P37136 whole entry): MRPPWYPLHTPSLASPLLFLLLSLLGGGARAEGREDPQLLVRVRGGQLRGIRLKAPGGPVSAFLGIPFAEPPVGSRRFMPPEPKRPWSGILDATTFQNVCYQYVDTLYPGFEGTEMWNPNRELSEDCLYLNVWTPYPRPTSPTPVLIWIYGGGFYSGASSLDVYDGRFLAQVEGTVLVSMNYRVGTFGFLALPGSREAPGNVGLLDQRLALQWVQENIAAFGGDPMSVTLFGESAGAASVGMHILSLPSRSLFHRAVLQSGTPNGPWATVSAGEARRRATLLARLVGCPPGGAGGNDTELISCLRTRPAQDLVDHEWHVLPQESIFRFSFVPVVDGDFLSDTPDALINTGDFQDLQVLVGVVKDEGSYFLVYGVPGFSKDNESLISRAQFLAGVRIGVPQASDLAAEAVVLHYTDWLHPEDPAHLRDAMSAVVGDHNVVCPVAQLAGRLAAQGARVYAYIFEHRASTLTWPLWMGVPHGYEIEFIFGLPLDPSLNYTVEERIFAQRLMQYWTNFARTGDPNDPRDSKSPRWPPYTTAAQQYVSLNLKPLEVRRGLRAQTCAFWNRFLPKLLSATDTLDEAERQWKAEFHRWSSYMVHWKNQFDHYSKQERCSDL
Hi there, I'd appreciate the recorded IC50 for every entry that follows.
State the answer as a number, implicitly in µM.

Suppose we examine the compound `CC(=O)CCCCCCCCCCCC[C@H]1CC[C@@H](OC(=O)OC(C)(C)C)[C@@H](C)N1` ; what IC50 value has been reported?
15.1

Suppose we examine the compound `CC(=O)CCCCCCCCCCCC[C@H]1CC[C@@H](OC(C)=O)[C@@H](C)N1` ; what IC50 value has been reported?
7.32
